assayed-system: T1, His-tagged cynomolgus CTLA-4 (CT4-C5227; Acro Biosystems) (cynomolgus, UniProt G7PL88 36-161)
T1 construct: also called soluble cynomolgus CTLA-4; cyno CTLA-4
T1 sequence (G7PL88 entry or part of it limits assumed, form in doubt): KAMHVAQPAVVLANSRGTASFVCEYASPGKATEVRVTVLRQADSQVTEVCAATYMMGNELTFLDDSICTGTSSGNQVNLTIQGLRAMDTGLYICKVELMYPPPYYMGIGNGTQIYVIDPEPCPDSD
assay-details: BLI (Octet), single antigen concentration
Protocol: Table 23. In vitro characterization of scFvs reformatted as full-length antibodies. kon, koff, and KD of the indicated CTLA-4 mAbs for soluble human CTLA-4 was determined by SPR (Carterra). Geometric MFI of the indicated CTLA-4 mAbs bound to CTLA-4⁺ or CD27⁺ CHO cells as detected by a secondary human IgG antibody and flow cytometry. Affinity (KD) of the indicated CTLA-4 mAbs for soluble cynomolgus CTLA-4 was determined by a single antigen concentration BLI measurement (Octet). […]
parameter-measured: pKd
Give bare numbers, as −log10 of the molar value.

Record antibody A1 (L1H1) (antibody, V domains shown, also called aCTLA-4.9; CTLA4.A1) VH: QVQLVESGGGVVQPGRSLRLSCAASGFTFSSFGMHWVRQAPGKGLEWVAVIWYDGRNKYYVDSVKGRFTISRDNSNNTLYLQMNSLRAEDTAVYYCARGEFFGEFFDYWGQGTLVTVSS VL: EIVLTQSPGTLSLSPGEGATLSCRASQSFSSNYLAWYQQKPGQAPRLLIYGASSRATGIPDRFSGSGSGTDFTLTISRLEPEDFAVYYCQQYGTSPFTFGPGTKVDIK . Reported pKd: 9.00

Where do these numbers come from? They come from patent US20230265192A1.
